Exercise: state measured Potency (pM) BW-hIL22R for each of the binders provided.
- testTarget: T1, human IL22R on BW-hIL22R cells (human, UniProt Q8N6P7 16-574)
- T1 sequence (looked up): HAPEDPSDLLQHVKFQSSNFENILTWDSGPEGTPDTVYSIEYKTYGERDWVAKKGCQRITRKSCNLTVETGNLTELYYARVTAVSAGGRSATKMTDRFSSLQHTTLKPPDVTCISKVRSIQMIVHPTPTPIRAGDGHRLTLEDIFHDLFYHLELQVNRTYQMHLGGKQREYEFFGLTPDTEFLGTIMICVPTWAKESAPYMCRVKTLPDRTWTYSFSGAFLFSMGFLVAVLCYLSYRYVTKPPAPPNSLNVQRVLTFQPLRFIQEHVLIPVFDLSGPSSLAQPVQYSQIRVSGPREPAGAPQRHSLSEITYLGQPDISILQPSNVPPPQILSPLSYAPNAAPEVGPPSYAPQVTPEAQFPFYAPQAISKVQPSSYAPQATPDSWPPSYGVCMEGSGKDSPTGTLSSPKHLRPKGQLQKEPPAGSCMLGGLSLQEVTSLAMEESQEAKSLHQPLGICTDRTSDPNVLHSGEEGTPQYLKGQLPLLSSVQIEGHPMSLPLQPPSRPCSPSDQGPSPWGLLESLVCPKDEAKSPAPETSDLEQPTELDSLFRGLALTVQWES
- assaySummary: cell-based or functional assay
One number for each entry, in pM.

Reference set (2 entries):
Measured Potency (pM) BW-hIL22R, 197G10 (antibody, V domains shown, Vkappa-shuffled clone of 170B2 (keeps the 170B2 VH-CH1); also called VK_197G10) VH: EVQLVESGGGLVQPGGSLRLSCAASGFTFSSSWMYWVRQAPGKGLEFVSVINTRSGITHYVESVKGRFTISTDNAKNTLFLQMNSLKSEDTAVYYCATRIQGLIDYWGQGTQVTVSS VL: DIQMTQSPSSMSASLGDSVTISCQASENIGTQLFWYQQNAGQPPKLLIYGASRLQTGVPSRFSGSGSGTTFTLTISGVETGDLATYYCLQDYSWPLTFGQGTKVELK : 124

Memo: 196C2 (antibody, V domains shown, Vkappa-shuffled clone of 170B2 (keeps the 170B2 VH-CH1); also called VK_196C2) VH: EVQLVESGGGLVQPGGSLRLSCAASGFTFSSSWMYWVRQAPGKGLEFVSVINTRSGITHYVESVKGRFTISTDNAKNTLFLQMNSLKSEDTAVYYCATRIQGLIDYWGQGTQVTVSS VL: DIQMTQSPSSLSASLGDRVTITCQASQSISSLLAWYQQKPGQAPKLLIYGASRLQTGVPSRFSGSGSGTSFTLTISGVEAEDLATYYCLQDYSWPLTFGQGTKVELK , reported Potency (pM) BW-hIL22R: 67

// next item, Potency (pM) BW-hIL22R requested
In plain terms, 170B2 (antibody, V domains shown, Llama-derived parental clone; also called VH_170B2; VK_170B2) VH: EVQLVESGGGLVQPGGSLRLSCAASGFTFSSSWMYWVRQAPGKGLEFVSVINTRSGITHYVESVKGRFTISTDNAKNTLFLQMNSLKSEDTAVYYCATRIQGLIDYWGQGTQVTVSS VL: DIVMTQSPSSLSVSLGDRVTITCQASQSIGSVNALAWYQQKPGQSLKLLIHGASRLQTGVPSRFSGSGSGTSFTLAISGVEAEDLATYYCLQDYAWPLTFGQGTKVELK has a documented Potency (pM) BW-hIL22R of 106
